Test: small molecules captured by biotinylated probe aFGF10 – biochemical, small-molecule microarray, fluorescence 635/667, stem cell growth factor project, primary screen (AID 1071);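 note: score merges 667 nm spot intensity and signal to noise from triplicate slides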
Details: higher = more signal
REPORTED_ENDPOINT: composite z-score

compound=COC(=O)[C@@]1(Cc2ccccc2)[C@H]2c3cc(C(=O)N4CCCC4)n(Cc4ccc(O)c(OC)c4)c3C[C@H]2CN1C(=O)c1ccccc1 measured_result=0.0854
compound="CCCCN1CC=CC23O[C@@H]4/C=C\\CCCOC(=O)C4[C@H]2C(=O)N(CCCCCO)[C@@H]3C1=O (stereo partly drawn)" measured_result=-0.0739
compound=CN(C)C(=O)[C@]1(Cc2ccccc2)N=C(c2ccc(OCCCO)cc2)O[C@@H]1c1ccccc1N=[N+]=[N-] measured_result=0.618
compound=O=C1O[C@@H](c2ccccc2)[C@@H](c2ccccc2)N2[C@@H](c3ccc(OCCO)cc3)[C@]3(C(=O)Nc4ccc(C#CCCO)cc43)[C@@H](C(=O)NC[C@H](O)c3ccccc3)[C@H]12 measured_result=0.902
compound=COC(=O)[C@@]1(Cc2ccccc2)[C@H]2c3cc(C(=O)N4CCCC4)n(Cc4c(CO)[nH]cc(C)c4=O)c3C[C@H]2CN1C(=O)c1ccccc1 measured_result=0.647
compound=O=C(CS)NCCCCCNC(=O)[C@@H]1C[C@@H]2C(=O)NCC(=O)N2[C@@H]1c1ccc(O)cc1 measured_result=0.0152
compound=NCCCCCNC(=O)[C@H]1C[C@H]2C(=O)N3CCC[C@H]3C(=O)N2[C@H]1c1ccc(O)cc1 measured_result=0.457
compound=CCOC(=O)C[C@H]1[C@H](OC(=O)c2cc3ccccc3oc2=O)[C@@H](NC(=O)CC(C)C)c2cc(OCCCO)ccc2N1C(=O)c1ccccc1 measured_result=0.667
compound=COC(=O)c1c2oc(c1C(=O)OC)C(=O)N[C@@H](C(C)C)Cn1cc(nn1)C1(CCCCC1)NC(=O)N[C@H](CO)CC2 measured_result=0.471
compound=O=C1[C@H]2C=C(Br)[C@H](C[C@@H]2OCCCCCCO)[C@@]12CO2 measured_result=-0.0632
compound=CC(C)(C)OC(=O)CC[C@]1(C(=O)NCCN2CCOCC2)COC(c2ccc(OCCCO)cc2)=N1 measured_result=0.691
compound=CCOC(=O)C1=CC[C@@H](c2ccc(C(F)(F)F)cc2)N(S(=O)(=O)c2ccc(C)cc2)[C@H]1c1ccccc1 measured_result=0.599
compound="CCOc1ccc(N2C(=O)CSC2c2cccc([N+](=O)[O-])c2)cc1 (stereo not drawn)" measured_result=0.839
compound="CC(c1ccccc1)C(O)C1C=CC2C(=O)N(C)C(=O)C2N1NC(=O)OC(C)(C)C (stereo not drawn)" measured_result=0.626
compound=Cc1ccc(S[C@]2(C(=O)O)CC(=O)N(Cc3ccccc3C(F)(F)F)[C@@H]2c2ccc(CO)cc2I)cc1 measured_result=-0.0146
compound=CC(C)(C)OC(=O)CC[C@@]1(C(=O)N2CCCCC2)N=C(c2ccc(OCCCO)cc2)O[C@@H]1c1ccccc1 measured_result=0.783
compound=Cc1ccc(S(=O)(=O)N2C[C@@H](C(=O)O)[C@H](Sc3ccccc3)C[C@H]2c2ccccc2)cc1 measured_result=1.15
compound=CC(=CC1CCCCC1)[C@@H](NC(=O)c1cccnc1)c1ccc(-c2ccccc2)cc1 measured_result=-0.25

* * *

Experiment: resazurin metabolic signal in A549 cells – cell-based, resazurin fluorescence, 24 h, PK04 Diversity Set, profiling panel (AID 1171); note: test concentration not given here
Conditions: A549 viability, higher = more signal, called active from +8 up or from −8 down
Could you please mark rule met for values of z-score below 0.4 and rule not met for values at or above it?

molecule=C#CCNCc1ccccc1 cat="rule met"
molecule="OCCCC1=CC(C2CC2)N(Cc2cccc(OC(F)(F)F)c2)CC1 (centres undefined)" cat="rule not met"
molecule=C#CCN1[C@H](/C=C/C2CC2)[C@H](Cc2ccccc2)OC(=O)[C@@H]1Cc1ccccc1 cat="rule not met"
molecule="CCCCN1CC=CC23O[C@@H]4/C=C\\CCCOC(=O)C4[C@H]2C(=O)N(CCCCCO)[C@@H]3C1=O (some centres undefined)" cat="rule met"
molecule=COCCOC(=O)N1C(=O)[C@@]2(c3cc(C#CC4=CCCCC4)ccc31)[C@H](C(N)=O)[C@H]1C(=O)O[C@H](c3ccccc3)[C@H](c3ccccc3)N1[C@@H]2c1ccc(O)cc1 cat="rule met"
molecule=[N-]=[N+]=Nc1ccccc1C[C@]1(C(=O)N2CCCCC2)COC(c2ccc(OCCCO)cc2)=N1 cat="rule not met"
molecule=COc1ccc([C@H]2C[C@H]3C(I)=C[C@@H]2C(=O)[C@]32CO2)cc1 cat="rule not met"
molecule=CCOC(=O)C1=CC[C@@H](c2ccc(C(F)(F)F)cc2)N(S(=O)(=O)c2ccc(C)cc2)[C@H]1c1ccccc1 cat="rule met"
molecule=CC(=CC1CCCCC1)[C@@H](NC(=O)c1cccnc1)c1ccc(-c2ccccc2)cc1 cat="rule not met"

* * *

System: Sonic hedgehog protein (Shh)
Assay: Sonic hedgehog microarray binding compounds – biochemical, small-molecule microarray, 635/667 nm fluorescence, primary screen (AID 1151);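 note: Shh protein binding to compounds spotted on small-molecule microarray slides; score combines spot fluorescence intensity with signal-to-noise across triplicate slides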
Details: 635 nm fluorescence, higher = more signal
Item-by-item account of composite z-score
REPORTED_ENDPOINT: composite z-score

smiles_string=C=CC[C@@]1(C(=O)N2CCCCC2)N=C(c2ccc(OCCCO)cc2)O[C@@H]1c1ccccc1N=[N+]=[N-] target_entity="Sonic hedgehog protein (Shh)" measured_result=-0.0797
smiles_string=O=C1O[C@H](c2ccccc2)[C@H](c2ccccc2)N2[C@H]1[C@@H](C(=O)NC[C@H](O)c1ccccc1)[C@]1(C(=O)Nc3ccccc31)[C@H]2c1ccc(O)cc1 target_entity="Sonic hedgehog protein (Shh)" measured_result=1.5
smiles_string=COc1ccc([Si](C)(C)[C@H]2[C@H](CCn3cc([C@H](O)c4ccccc4)nn3)O[C@@]3(C(=O)N(C)c4ccccc43)[C@@H]2C)cc1 target_entity="Sonic hedgehog protein (Shh)" measured_result=1.36

* * *

Assay: probe aWnt5a binding to arrayed compounds – biochemical, biotinylated probe, 635/667 nm fluorescence, primary screen (AID 1113);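 note: score merges 667 nm fluorescence intensity with signal-to-noise per printed feature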
Settings: small-molecule microarray, higher = more signal
Lab note: compare composite z-score against -0.02. Equal or greater, write Fulfilled. Smaller, write Not fulfilled.

compound="COc1ccc(C(O)C2C=CC3C(=O)N(C)C(=O)C3N2N(c2ccccc2)c2ccccc2)c2ccccc12 (stereo not drawn)" cat=Fulfilled
compound=CCCCC(=C=CC[C@@H](O)c1cccc(OCCO)c1)C[C@@H](O)c1ccccn1 cat="Not fulfilled"
compound=Cc1ccc(S[C@]2(C(=O)O)CC(=O)N(C(C)C)[C@@H]2c2ccc(CO)cc2)cc1 cat="Not fulfilled"
compound="O=C1NC(=O)C2C1C=CC(C(O)c1ccc(-c3ccccc3)s1)N2Nc1ccc(Cl)cc1Cl (stereo not drawn)" cat=Fulfilled
compound=C#CCN1[C@H](/C=C/C2CC2)[C@H](Cc2ccccc2)OC(=O)[C@@H]1Cc1ccccc1 cat="Not fulfilled"
compound=O=C1O[C@H](c2ccccc2)[C@H](c2ccccc2)N2[C@H]1[C@@H](C(=O)NC[C@H](O)c1ccccc1)[C@]1(C(=O)Nc3ccc(C#CC4=CCCCC4)cc31)[C@H]2c1ccccc1OCCO cat=Fulfilled
compound="C=CCC(OC(C)=O)[C@@H]1[C@@H](N(Cc2ccc(-c3ccccc3)cc2)C(=O)Cc2ccc(F)cc2)c2cc(OCCCO)ccc2N1C(=O)c1ccc2ccccc2c1 (stereo partly drawn)" cat="Not fulfilled"

* * *

Assay: JC-1 mitochondrial signal, unstimulated myeloma cells – cell-based, JC-1 fluorescence, RPMI8226, 24 h, 100 nL compound, profiling panel (AID 1169); note: test concentration not given here
Conditions: JC-1 mitochondrial potential fluorescence, higher = more signal
In this section we review reported z-score values for a set of compounds.
REPORTED_ENDPOINT: z-score

smiles_string=CN(C)CCCCCCNC(=O)[C@@H]1C[C@@H]2C(=O)N3CCC[C@H]3C(=O)N2[C@@H]1c1ccc(O)cc1 measured_result=-0.689
smiles_string=C#CCN1[C@H](/C=C/C2CC2)[C@H](Cc2ccccc2)OC(=O)[C@@H]1Cc1ccccc1 measured_result=-0.294
smiles_string=CC(C)C(=C=CC[C@H](O)c1ccc(CO)o1)CCO measured_result=-0.533
smiles_string=CC(C)[Si](C#C[Si](C(C)C)(C(C)C)C(C)C)(O[C@H](C)c1cn(Cc2ccccc2)nn1)C(C)C measured_result=0.0518
smiles_string=C=CC[C@@]1(C(=O)N2CCCCC2)N=C(c2ccc(OCCCO)cc2)O[C@@H]1c1ccccc1N=[N+]=[N-] measured_result=-0.982
smiles_string=C=C(CCCC)C(=O)CC[C@H](OC(=O)c1cccnc1)c1ccc(OCCO)cc1 measured_result=-0.658

* * *

Assay: probe aCHRDL2 binding to arrayed compounds – biochemical, biotinylated probe, 635/667 nm fluorescence, primary screen (AID 1100)
Conditions: small-molecule microarray, higher = more signal
# composite z-score >= 0.6 gives criterion met, anything below gives criterion not met

compound="CC(c1ccccc1)C(O)C1C=CC2C(=O)N(C)C(=O)C2N1NC(=O)OC(C)(C)C (configuration not stated)" cat="criterion not met"
compound=O=C1[C@@]23C=C(Br)[C@H](C[C@@H]2COC3)[C@]12CO2 cat="criterion not met"
compound="COc1ccc(NN2C(C(O)c3ccc(N(C)C)cc3)C=CC3C(=O)N(C4CCCCC4)C(=O)C32)cc1 (configuration not stated)" cat="criterion met"
compound=Cc1ccc([C@H]2C(C(=O)O)=CCN2S(=O)(=O)c2ccc(C)cc2)cc1 cat="criterion met"
compound="CCCCC(O)C1C=CC2C(=O)N(C)C(=O)C2N1N1CCCCC1 (configuration not stated)" cat="criterion met"
compound=CC(C)CN1C(=O)[C@@]2(c3ccc([N+](=O)[O-])cc3)CC(=O)N(C3CCCCC3)[C@@H]2c2ccc(CO)cc21 cat="criterion met"
compound=CN(C)CCCCCCNC(=O)[C@@H]1C[C@@H]2C(=O)N3CCC[C@H]3C(=O)N2[C@@H]1c1ccc(O)cc1 cat="criterion not met"
